assay: Cellular viability qHTS for adrenocortical cancer (ACC) cell line NCI-H295R (AID 1963990); conditions: CellTiter-Glo ATP luminescence, 48 h; series mostly up to 46.1 µM; further: nearly all actives have a fitted effect of over 60% in size; further: potency means the concentration at half of the fitted maximal effect
Results filed as inconclusive are left out. Activity calls are given as the source filed them. The call rests on the fitted dose curve; in most records, active means well fitted cell-killing curve with a large enough effect; inconclusive means small, poorly fitted or top-dose-only effect; inactive means flat fitted curve, though single readings scatter.

Molecule	Potency
COc1ccc(C2C(=O)c3ccccc3C2=O)cc1	inactive
O=C(O)c1cc(=O)[nH]c(=O)[nH]1	inactive
O=C(CCNC(=O)c1ccc(OC(F)(F)F)cc1)N[C@@H]1CCCc2ccccc21	inactive
NC(=O)NS(=O)(=O)c1ccc(N)cc1	inactive
COc1ccc2nc(SCc3ncc(C)c(OC)c3C)[nH]c2c1	inactive
C1CCN2C[C@@H]3C[C@@H](CN4CCCC[C@@H]34)[C@H]2C1	inactive
COc1ccc(C(=O)N2CCN(C(=O)/C=C/c3ccc(Br)cc3)CC2)cc1	inactive
COc1ccc(S(=O)(=O)N[C@@H](CNc2nc(C)nc(N3CCC(c4ccc5c(n4)NCCC5)CC3)c2C)C(=O)O)cc1	inactive
CCCCCCCCCCCCCCCCCCN(C)C	inactive
C=CC(=O)N1CCC[C@@H](n2nc(-c3ccc(Oc4ccccc4)cc3)c3c(N)ncnc32)C1	inactive
CCC(CC)CC1(C(=O)Nc2ccccc2SC(=O)C(C)C)CCCCC1	inactive
COc1ccc(-c2cc(C(F)F)nn2-c2ccc(S(N)(=O)=O)cc2)cc1F	inactive
O=C1CCc2ccc(OCCCCN3CCN(c4cccc(Cl)c4Cl)CC3)cc2N1	inactive
CNCCC(Oc1ccccc1OC)c1ccccc1 (stereo not drawn)	inactive
CC(C)(O)[C@H]1CC[C@@](C)([C@H]2[C@@H](O)C[C@@]3(C)[C@@H]4C[C@H](O[C@@H]5O[C@H](CO)[C@@H](O)[C@H](O)[C@H]5O)[C@H]5C(C)(C)[C@@H](O[C@@H]6OC[C@@H](O)[C@H](O)[C@H]6O)CC[C@@]56C[C@@]46CC[C@]23C)O1	inactive
O[C@@H](CNC[C@H](O)[C@H]1CCc2cc(F)ccc2O1)[C@@H]1CCc2cc(F)ccc2O1	18.4 µM (active)
CC1(C)S[C@@H]2[C@H](NC(=O)[C@H](N)c3ccccc3)C(=O)N2[C@H]1C(=O)O	inactive
Nc1cc(-c2ccncc2)c[nH]c1=O	inactive
CC(C(=O)O)c1ccc(/C=C2\CCCCC2=O)cc1 (stereo not drawn)	inactive
COc1cc(N)c(Cl)cc1C(=O)NC1CCN(CCCOc2ccc(F)cc2)CC1OC (stereo not drawn)	inactive
CC(C)n1ncnc1-c1cn2c(n1)-c1ccc(O[C@@H](C)C(N)=O)cc1OCC2	0.631 µM (active)
C[C@]12CCC(=O)C=C1CC[C@@H]1[C@@H]2C(=O)C[C@@]2(C)[C@H]1CC[C@]2(O)C(=O)CO	inactive
CN(C)CCCOc1ccc(-c2ccc3ncc4c(c3c2)n(C2CCOCC2)c(=O)n4C)cn1	1.8 µM (active)
Cc1ccc(C(=O)Nc2ccc(CN3CCN(C)CC3)c(C(F)(F)F)c2)cc1C#Cc1cnc2[nH]ncc2c1	5.01 µM (active)
CC[C@H]1OC(=O)[C@H](C)C(=O)[C@H](C)[C@@H](O[C@H]2O[C@H](C)C[C@H](N(C)C)[C@H]2O)[C@](C)(OC)C[C@@H](C)C(=O)[C@H](C)[C@H]2N(CCCCn3cnc(-c4cccnc4)c3)C(=O)O[C@]12C	inactive
CC1(COc2ccc3c(c2)ncn3-c2ccc3cccc(N4CCC(N)CC4)c3n2)COC1	14.1 µM (active)
COc1cc2c3cc1Oc1cc(ccc1O)C[C@@H]1c4c(cc(OC)c(O)c4Oc4ccc(cc4)C[C@@H]3N(C)CC2)CC[N+]1(C)C	inactive
COC(=O)c1cc(S(N)(=O)=O)ccc1OC	inactive
CC(=O)OC(C)OC(=O)C(C)c1ccc(-c2ccccc2)c(F)c1 (stereo not drawn)	inactive
FC(F)(F)c1ccc(CNc2ccc(Cc3c[nH]c4ncc(Cl)cc34)cn2)cn1	inactive
C[C@]12C=CC(=O)C=C1CC[C@@H]1[C@@H]2[C@@H](O)C[C@@]2(C)[C@H]1CC[C@]2(O)C(=O)CO	inactive
CCN1CCC[C@H]1CNC(=O)c1c(O)c(Cl)cc(Cl)c1OC	inactive
C[C@@H]1CN(Cc2ccc(F)cc2)[C@@H](C)CN1C(=O)c1cc2c(C(=O)C(=O)N(C)C)cn(C)c2cc1Cl	inactive
CC(C)(C)c1ccc(C(O)CCCN2CCC(C(O)(c3ccccc3)c3ccccc3)CC2)cc1 (stereo not drawn)	4.11 µM (active)
NC(N)=NC(=O)Cc1c(Cl)cccc1Cl	inactive
O=C(NCc1cccc(O)c1)Nc1nc(-c2ccncc2)cs1	inactive
COc1ccc2[nH]c(S(=O)Cc3ncc(C)c(OC)c3C)nc2n1 (stereo not drawn)	inactive
CC(C)(C)c1cc(NC(=O)Nc2ccc(-c3cn4c(n3)sc3cc(OCCN5CCOCC5)ccc34)cc2)no1	inactive

Origin of the recorded values: PubChem BioAssay (NCATS)
